pIC50: −log10 of the molar value.
Target or system Stromelysin-1 (Homo sapiens); recorded quantity pIC50.
EXPERIMENTAL_READOUT: pIC50

O=C(O)Cc1ccccc1S(=O)(=O)c1ccc(-c2ccc(NC(=O)CF)cc2)cc1    5.17
O=C(O)Cc1ccccc1S(=O)(=O)c1ccc(-c2ccc(F)cc2)cc1    4.17

###

# TEST_SYSTEM: Interstitial collagenase (Homo sapiens, UniProt P03956)
# Sequence (P03956 whole entry): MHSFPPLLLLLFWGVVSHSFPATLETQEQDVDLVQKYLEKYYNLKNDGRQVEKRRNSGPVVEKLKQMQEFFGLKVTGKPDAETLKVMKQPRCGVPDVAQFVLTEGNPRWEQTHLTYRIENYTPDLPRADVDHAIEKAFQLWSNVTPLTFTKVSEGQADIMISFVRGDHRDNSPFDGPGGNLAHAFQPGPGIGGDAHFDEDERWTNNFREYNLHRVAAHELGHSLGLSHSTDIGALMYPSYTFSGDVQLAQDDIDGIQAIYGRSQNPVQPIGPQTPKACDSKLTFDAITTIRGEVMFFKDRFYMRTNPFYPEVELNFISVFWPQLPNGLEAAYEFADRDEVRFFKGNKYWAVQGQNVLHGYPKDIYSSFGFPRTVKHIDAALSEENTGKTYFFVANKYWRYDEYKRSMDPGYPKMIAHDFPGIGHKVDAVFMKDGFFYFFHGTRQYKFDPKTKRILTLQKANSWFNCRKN
EXPERIMENTAL_READOUT: IC50 (µM)

O=C(O)Cc1ccccc1S(=O)(=O)c1ccc(-c2ccc(NC(=O)CF)cc2)cc1    6.1
O=C(O)Cc1ccccc1S(=O)(=O)c1ccc(-c2ccc(OCCF)cc2)cc1    18.5
O=C(O)Cc1ccccc1S(=O)(=O)c1ccc(-c2ccc(F)cc2)cc1    11.5

###

# TEST_SYSTEM: Matrix metalloproteinase-14 (Homo sapiens)
# METHOD_DESCRIPTION: Inhibition of human recombinant MMP-14 catalytic domain using Mca-Lys-Pro-Leu-Gly-Leu-Dap(Dnp)-Ala-Arg-NH2 as substrate after 4 hrs by fluorometric assay
pIC50: −log10 of the molar value.
EXPERIMENTAL_READOUT: pIC50

O=C(O)Cc1ccccc1S(=O)(=O)c1ccc(-c2ccc(F)cc2)cc1    5.32
O=C(O)Cc1ccccc1S(=O)(=O)c1ccc(-c2ccc(NC(=O)CF)cc2)cc1    5.34
O=C(O)Cc1ccccc1S(=O)(=O)c1ccc(-c2ccc(OCCF)cc2)cc1    5.80

###

# TEST_SYSTEM: Albumin (Homo sapiens)
# Sequence (P02768 whole entry): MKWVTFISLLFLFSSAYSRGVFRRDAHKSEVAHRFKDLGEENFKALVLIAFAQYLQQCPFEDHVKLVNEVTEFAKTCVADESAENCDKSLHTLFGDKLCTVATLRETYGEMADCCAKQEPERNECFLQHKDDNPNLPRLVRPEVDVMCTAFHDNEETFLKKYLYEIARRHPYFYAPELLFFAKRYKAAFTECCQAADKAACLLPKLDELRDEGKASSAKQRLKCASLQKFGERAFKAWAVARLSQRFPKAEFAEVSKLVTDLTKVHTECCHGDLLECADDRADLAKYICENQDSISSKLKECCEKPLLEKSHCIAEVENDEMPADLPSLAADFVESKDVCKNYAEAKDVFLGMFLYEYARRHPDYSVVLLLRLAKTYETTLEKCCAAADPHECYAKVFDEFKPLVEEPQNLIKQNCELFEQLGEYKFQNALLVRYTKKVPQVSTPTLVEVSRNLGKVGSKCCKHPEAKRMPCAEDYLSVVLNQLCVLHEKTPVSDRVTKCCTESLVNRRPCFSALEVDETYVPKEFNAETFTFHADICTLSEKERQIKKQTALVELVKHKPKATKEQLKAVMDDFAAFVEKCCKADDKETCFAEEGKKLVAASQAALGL
# METHOD_DESCRIPTION: Binding affinity to human serum albumin by 19F NMR titration assay
pKd: −log10 of the molar value.
EXPERIMENTAL_READOUT: pKd

O=C(O)Cc1ccccc1S(=O)(=O)c1ccc(-c2ccc(NC(=O)CF)cc2)cc1    5.00
O=C(O)Cc1ccccc1S(=O)(=O)c1ccc(-c2ccc(OCCF)cc2)cc1    3.85

###

# METHOD_DESCRIPTION: Drug uptake in tumor in […] CD1 nude mouse xenografted with human U87MG cells after 10 mins by PET imaging analysis
# Format: ADME, organism-based, Neoplasm, U-87MG ATCC
# CONDITION_INFO: read-out: Drug uptake
EXPERIMENTAL_READOUT: tissue uptake at 10 min (%ID/g)

O=C(O)Cc1ccccc1S(=O)(=O)c1ccc(-c2ccc(OCC[18F])cc2)cc1    1.1
